- System: MDA-MB-231 breast
- protocol: NCI-60 one-dose screen, 48 h (100 = growth as untreated, 0 = no growth, -100 = all killed)
- condition: 10 µM unless noted
About 83,000 compounds went through this panel and 20% of them were active in at least one assay; those are over-represented in the sample as a whole. Calls of active or inactive are those of the source. The calls were made as follows: active = growth percent below 10; inactive = the rest.
outcome.measure: growth

>>> result("CC1C2CCC(C2)C1COCCOCCO (stereo unspecified)")
"113% (inactive)"

Input: Quick one: growth of `N#Cc1nc(-c2cccc(Br)c2)cc(-c2ccc(Nc3nc(N4CCCCC4)nc(N4CCCCC4)n3)cc2)c1N` ?
Output: -67.4% (active)

Input: Could you share which growth value was measured for `CCCCCCCCCCCCCCCCS(=O)(=O)Nc1cc(C(=O)NN)cc(C(=O)NN)c1` ?
Output: 58.2% (inactive)

Input: Query: growth; subject: `COc1ccc(-c2n[nH]nc2-c2cc(OC)c3c(c2)OCO3)cc1`
Output: -25.9% (active)

Input: Tell me the measured growth of `Cc1cc(C)c2c(n1)sc1c(Nc3ccc(OCc4ccccc4)cc3)ncnc12` , please.
Output: 109% (inactive)

Input: I am curious: what growth value has been reported for CCCCNCC(O)c1cc(-c2ccc(C(F)(F)F)cc2)nc(-c2ccc(C(F)(F)F)cc2)c1 (stereo unspecified) ?
Output: -71.9% (active)
